- Test system: SK-OV-3 ovarian
- experimental details: NCI tumour cell line growth inhibition, 48 h
parameter: TGI

Some solved entries appear below for comparison.
> print(dat)
                                   compound     study.system  observed.result
1    COc1ccc(C(=O)c2cc(OC)c(OC)c(OC)c2)cc1O  SK-OV-3 ovarian         > 100 µM
2  COc1ccc(/C=C(\C#N)c2cc(OC)c3c(c2)OCO3)cc1  SK-OV-3 ovarian         0.458 µM
3  CN(C)c1ccc(/C=C2\N=C(c3ccc(N)cc3)OC2=O)cc1  SK-OV-3 ovarian         > 100 µM

// query TGI value for entry CC1OC(OC2C(Oc3cc(O)c4c(=O)cc(-c5ccc(O)cc5)oc4c3)OC(CO)C(O)C2O)C(O)C(O)C1O (stereo not given)
> 100 µM

FC(F)(F)C1(C(F)(F)F)OC(Cl)(Cl)C(Cl)(Cl)O1 , same question.
> 10 µM

CC1(C)OC[C@@]2([C@@H]3CC[C@@H](C3)C2(C)C)N1O , same question.
> 100 µM

Another: CCC(/C=C/c1ccccc1)=N\NC(=S)N/N=C(/C=C/c1ccccc1)CC
> 100 µM

Now this one: CCOC(=O)c1cc2cc(CSc3ccccc3)ccc2oc1=O
> 100 µM

Same read-out for O=C(NCCCCNCCCNC(=O)C(F)(F)F)C(F)(F)F ?
65.5 µM

// same read-out, input: CC(=O)O/C(=C(/C#N)C(=O)O)C1C(C(=O)O)C(c2ccccc2[N+](=O)[O-])C=C(c2ccco2)N1c1ccncc1 (stereo not given)
23.9 µM

----------
Attribute: TGI
- Test system: LXFL 529 NSCLC
- experimental details: NCI tumour cell line growth inhibition, 48 h

Example entries begin here.
> print(dat)
                                   molecule  observed.result
1  COC1CC(OS(=O)(=O)c2ccc(C)cc2)C(OS(=O)(=O)c2ccc(C)cc2)C(COS(=O)(=O)c2ccc(C)cc2)O1 (stereo not given)          18.7 µM
2  CC(C)(C)C(=O)C(c1ccc(-c2cscn2)cc1)c1ccc(-c2cscn2)cc1         > 100 µM
3  COc1cccc(NC(=O)N/C(=C/c2ccc(N(CCC#N)CCC#N)cc2)NC(=O)c2cc([N+](=O)[O-])ccc2Cl)c1         > 100 µM

Reported TGI, molecule Cc1ccc(S(=O)(=O)OCC23CCC(C4CC42)C2CC23)cc1 (stereo not given) : ____
> 100 µM

// same read-out, input: O=C(Nc1nccs1)c1cc(C2=CC=CC([N+](=O)[O-])C=C2)nc(=S)[nH]1 (stereo not given)
> 100 µM

----------
- Test system: HCT-116 colon
- experimental details: NCI tumour cell line growth inhibition, 48 h
GI50 for assorted molecules

> print(dat)
                                chem.smiles  observed.result
1  C=C(CN1CCN(c2ccccc2F)CC1)c1ccc(C(=O)Nc2ccccc2N)cc1           957 nM
2  COc1cccc(/C=C/C(=O)c2cc3c(N)c(C(=O)Nc4cccc(Cl)c4C)sc3nc2C)c1           605 nM
3       N#CC(C#N)=CN1CCN(C(=O)c2ccccc2)C1=S         34000 nM
4  O=C(CNC(=O)c1cccc2ccccc12)Nc1ccccc1Oc1ccccc1           322 nM
5  O=[N+]([O-])c1cc(Br)cc2c1[nH]c1ccc(Br)cc12          5000 nM

Notebook entry, HCT-116 colon assay: GI50 of O=c1[nH]nc2c3c(cccc13)NC(CN1Cc3ccccc3C1)=N2 = ?
6770 nM

Next up: O=C(Nc1ccc(Nc2ccncc2)cc1)c1ccc(Nc2ccnc3ccc([N+](=O)[O-])cc23)cc1
> 100000 nM

These entries and their values trace back to PubChem BioAssay (NCI).
